test system: Fibroblast; experiment: Multiplex assay against human fibroblast; format: toxicity, cell-based; conditions: 48 h, 1 µM, compound concentration 1 uM, replicate 2
Non-standard residues stand in square brackets, D forms with d. Residues, ends and D or L forms follow the SMILES beside them.
endpointLabel: Population Pyknosed Nuclei (%)
One number for each entry, in %.

INSERT INTO measurements (compound, endpointlabel, result) VALUES
  ('CN1CCN2c3ccccc3Cc3ccccc3C2C1.Cl (stereo unspecified) [MIANSERIN HYDROCHLORIDE]', 'Population Pyknosed Nuclei (%)', 11),
  ('O=c1ccc2ccc(OCCCCN3CCN(c4cccc5sccc45)CC3)cc2[nH]1', 'Population Pyknosed Nuclei (%)', 5),
  ('CCc1nn2c(C)cc(C)nc2c1Cc1ccc(-c2nnc(C3CCNCC3)o2)cc1', 'Population Pyknosed Nuclei (%)', 14),
  ('O=C(O)CCC/C=C\CC1C(O)CC(O)C1/C=C/C(O)COc1cccc(Cl)c1 (stereo unspecified)', 'Population Pyknosed Nuclei (%)', 18),
  ('COCCCN1CCC(NC(=O)c2cc(Cl)c(N)c3c2OCC3)CC1 [PRUCALOPRIDE]', 'Population Pyknosed Nuclei (%)', 13),
  ('Cc1cc(=O)n(C)c2cc(N3C(=O)CC[C@H](NS(=O)(=O)CC(C)C)[C@H]3c3ccc(Cl)cc3)ccc12', 'Population Pyknosed Nuclei (%)', 9),
  ('COc1cc(OC2CCN(C(C)=O)CC2)ccc1C(=O)N1CCC(N2C(=O)OCc3ccccc32)CC1', 'Population Pyknosed Nuclei (%)', 15),
  ('CCC(=O)OCC(=O)[C@@]1(OC(=O)CC)[C@@H](C)C[C@H]2[C@@H]3CCC4=CC(=O)C=C[C@]4(C)[C@@]3(Cl)[C@@H](O)C[C@@]21C [BECLOMETHASONE DIPROPIONATE]', 'Population Pyknosed Nuclei (%)', 27),
  ('COc1ccc2c(c1OCc1ccccc1)C[C@@H](C(=O)O)N(C(=O)C(c1ccccc1)c1ccccc1)C2', 'Population Pyknosed Nuclei (%)', 15),
  ('CN(C)C(=O)Cn1cc(-c2ccc(-c3nnc4ccccn34)cc2)cn1', 'Population Pyknosed Nuclei (%)', 18);

Take each entry in turn and give its Population Pyknosed Nuclei (%).
1. C[C@H](NC(=O)CNC(=O)c1cccc(Cl)c1)c1ccccc1
2. Cc1nn(C)c2nc(NNC(=O)Nc3cc(Cl)nc(Cl)c3)cc(C(C)C)c12
3. CC(C)C[C@@H]1NC(=O)[C@@H](C(C)C)NC(=O)[C@@H]2CCCN2C(=O)[C@@H](CC(=O)O)NC(=O)[C@@H](Cc2c[nH]c3ccccc23)NC1=O [BQ-123] (cyclo(L[dW][dD]P[dV]))
4. CC(C)C[C@H](CO)Nc1nc(S[C@@H](C)c2ccccc2)nc2nc(N)sc12
5. COc1cc2nc(N3CCN(C(=O)COc4c(OC)cccc4C(C)C)CC3)nc(N)c2cc1OC.Cl.Cl
6. Cl.Cl.OCCOCCN1CCN(C(c2ccccc2)c2ccc(Cl)cc2)CC1 (stereo unspecified) [HYDROXYZINE HYDROCHLORIDE]

1: 17; 2: 3; 3: 15; 4: 20; 5: 11; 6: 9
